# tested_on: Histone deacetylase 9 (Homo sapiens, UniProt Q9UKV0)
# Sequence (Q9UKV0 whole entry): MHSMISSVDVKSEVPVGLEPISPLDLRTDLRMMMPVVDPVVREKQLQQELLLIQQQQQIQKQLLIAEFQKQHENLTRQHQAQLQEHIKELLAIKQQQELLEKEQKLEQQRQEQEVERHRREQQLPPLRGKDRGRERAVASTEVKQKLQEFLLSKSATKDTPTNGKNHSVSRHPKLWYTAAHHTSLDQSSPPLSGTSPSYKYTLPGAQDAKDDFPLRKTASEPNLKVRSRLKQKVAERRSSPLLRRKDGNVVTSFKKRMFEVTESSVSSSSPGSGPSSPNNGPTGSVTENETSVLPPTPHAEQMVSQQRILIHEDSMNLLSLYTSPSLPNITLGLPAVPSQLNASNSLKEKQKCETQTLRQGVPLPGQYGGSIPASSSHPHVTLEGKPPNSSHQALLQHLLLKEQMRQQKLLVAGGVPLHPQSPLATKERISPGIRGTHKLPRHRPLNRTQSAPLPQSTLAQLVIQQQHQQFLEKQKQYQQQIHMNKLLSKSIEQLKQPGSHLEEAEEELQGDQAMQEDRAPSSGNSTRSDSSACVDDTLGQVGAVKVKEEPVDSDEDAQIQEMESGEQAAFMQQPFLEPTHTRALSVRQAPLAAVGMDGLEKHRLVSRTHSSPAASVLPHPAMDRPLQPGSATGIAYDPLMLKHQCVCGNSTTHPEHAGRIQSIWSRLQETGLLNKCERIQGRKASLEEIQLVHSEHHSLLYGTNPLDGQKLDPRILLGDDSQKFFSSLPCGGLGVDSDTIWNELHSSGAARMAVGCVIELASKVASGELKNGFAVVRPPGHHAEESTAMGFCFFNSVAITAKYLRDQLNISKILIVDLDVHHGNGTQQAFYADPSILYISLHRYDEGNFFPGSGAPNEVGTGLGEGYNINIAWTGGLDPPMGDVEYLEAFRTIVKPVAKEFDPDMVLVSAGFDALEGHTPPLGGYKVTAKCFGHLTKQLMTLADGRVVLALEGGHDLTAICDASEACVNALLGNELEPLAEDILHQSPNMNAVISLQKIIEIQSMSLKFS
measured_parameter: Ki (nM)

>>> value_measured("CN1CCC(CNC(=O)c2cccc(-c3noc(C(F)(F)F)n3)c2)(c2nc(-c3ccccc3)cs2)CC1")
8

###

# tested_on: Histone deacetylase 7 (Homo sapiens, UniProt Q8WUI4)
# method_notes: Inhibition of HDAC7 (unknown origin)
pIC50: −log10 of the molar value.
measured_parameter: pIC50

>>> value_measured("CN(Cc1cnc2nc(N)nc(N)c2n1)c1ccc(C(=O)NC(CCP(=O)(O)O)P(=O)(O)O)cc1 (stereo unspecified)")
4.79

###

# tested_on: Histone deacetylase 7 (Homo sapiens)
# Sequence (Q8WUI4 whole entry): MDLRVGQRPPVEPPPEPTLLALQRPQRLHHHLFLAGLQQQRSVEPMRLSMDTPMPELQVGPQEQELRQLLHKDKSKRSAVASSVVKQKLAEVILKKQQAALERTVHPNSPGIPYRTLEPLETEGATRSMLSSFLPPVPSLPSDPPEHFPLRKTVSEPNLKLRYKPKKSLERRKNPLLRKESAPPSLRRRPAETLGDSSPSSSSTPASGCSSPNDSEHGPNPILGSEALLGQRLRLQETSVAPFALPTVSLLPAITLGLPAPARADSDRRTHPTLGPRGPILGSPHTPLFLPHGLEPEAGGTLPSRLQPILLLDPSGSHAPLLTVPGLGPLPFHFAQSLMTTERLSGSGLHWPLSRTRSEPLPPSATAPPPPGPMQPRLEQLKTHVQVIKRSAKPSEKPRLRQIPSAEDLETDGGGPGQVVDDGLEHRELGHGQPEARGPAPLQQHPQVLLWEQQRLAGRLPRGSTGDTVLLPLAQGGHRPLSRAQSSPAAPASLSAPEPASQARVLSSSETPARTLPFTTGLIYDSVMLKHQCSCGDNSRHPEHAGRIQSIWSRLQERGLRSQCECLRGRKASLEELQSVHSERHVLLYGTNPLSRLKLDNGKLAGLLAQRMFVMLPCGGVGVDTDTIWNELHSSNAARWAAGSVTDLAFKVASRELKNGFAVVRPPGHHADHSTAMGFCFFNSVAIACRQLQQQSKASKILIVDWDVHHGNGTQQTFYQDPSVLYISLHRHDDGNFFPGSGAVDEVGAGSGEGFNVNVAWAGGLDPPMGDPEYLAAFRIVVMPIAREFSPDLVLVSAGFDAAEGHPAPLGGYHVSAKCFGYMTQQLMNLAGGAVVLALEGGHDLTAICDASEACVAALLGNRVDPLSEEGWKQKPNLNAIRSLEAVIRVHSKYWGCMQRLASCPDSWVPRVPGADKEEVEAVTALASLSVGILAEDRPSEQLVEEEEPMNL
pKi: −log10 of the molar value.
measured_parameter: pKi

>>> value_measured("CN1CCC(CNC(=O)c2cccc(C(=O)NO)c2)(c2nc(-c3ccccc3)cs2)CC1")
5.40

###

# tested_on: Histone deacetylase 4 (Homo sapiens, UniProt P56524)
# Sequence (P56524 whole entry): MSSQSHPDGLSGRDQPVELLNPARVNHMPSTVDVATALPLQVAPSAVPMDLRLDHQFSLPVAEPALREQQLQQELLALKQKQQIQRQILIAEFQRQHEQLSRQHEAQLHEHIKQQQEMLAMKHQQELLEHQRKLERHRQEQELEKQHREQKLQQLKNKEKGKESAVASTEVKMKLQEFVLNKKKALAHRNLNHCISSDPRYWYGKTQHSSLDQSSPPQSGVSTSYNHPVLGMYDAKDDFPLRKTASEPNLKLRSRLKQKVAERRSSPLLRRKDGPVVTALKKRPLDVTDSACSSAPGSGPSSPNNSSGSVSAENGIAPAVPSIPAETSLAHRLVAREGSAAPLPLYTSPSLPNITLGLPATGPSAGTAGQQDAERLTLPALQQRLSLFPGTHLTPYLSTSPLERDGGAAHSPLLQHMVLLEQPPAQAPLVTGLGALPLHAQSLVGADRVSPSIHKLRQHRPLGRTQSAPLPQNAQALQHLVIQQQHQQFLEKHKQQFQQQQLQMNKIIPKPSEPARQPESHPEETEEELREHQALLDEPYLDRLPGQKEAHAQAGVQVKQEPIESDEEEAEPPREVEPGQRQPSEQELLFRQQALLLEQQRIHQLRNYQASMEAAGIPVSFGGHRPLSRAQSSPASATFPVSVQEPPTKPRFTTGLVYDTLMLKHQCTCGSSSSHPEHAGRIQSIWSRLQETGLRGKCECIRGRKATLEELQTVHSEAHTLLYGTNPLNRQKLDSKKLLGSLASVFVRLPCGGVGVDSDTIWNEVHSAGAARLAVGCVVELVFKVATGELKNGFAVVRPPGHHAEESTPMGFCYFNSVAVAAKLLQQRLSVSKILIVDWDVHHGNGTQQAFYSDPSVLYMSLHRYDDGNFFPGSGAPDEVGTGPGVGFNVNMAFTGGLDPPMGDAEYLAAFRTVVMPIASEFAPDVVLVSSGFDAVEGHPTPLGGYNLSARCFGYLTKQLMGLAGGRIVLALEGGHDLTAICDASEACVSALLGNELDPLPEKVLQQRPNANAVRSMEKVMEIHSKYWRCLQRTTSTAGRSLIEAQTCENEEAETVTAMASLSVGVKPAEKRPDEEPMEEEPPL
# method_notes: Inhibition of HDAC4 in human HeLa nuclear extract using Boc-Lys(Ac)-AMC as substrate preincubated for 5 mins followed by substrate addition measured after 30 mins by fluorometric assay
# Assay type: cell-free
measured_parameter: IC50

>>> value_measured("CN(Cc1cnc2nc(N)nc(N)c2n1)c1ccc(C(=O)NC(CCP(=O)(O)O)P(=O)(O)O)cc1 (stereo unspecified)")
"> 40 µM"

###

# tested_on: Histone deacetylase 8 (Homo sapiens, UniProt Q9BY41)
# Sequence (Q9BY41 whole entry): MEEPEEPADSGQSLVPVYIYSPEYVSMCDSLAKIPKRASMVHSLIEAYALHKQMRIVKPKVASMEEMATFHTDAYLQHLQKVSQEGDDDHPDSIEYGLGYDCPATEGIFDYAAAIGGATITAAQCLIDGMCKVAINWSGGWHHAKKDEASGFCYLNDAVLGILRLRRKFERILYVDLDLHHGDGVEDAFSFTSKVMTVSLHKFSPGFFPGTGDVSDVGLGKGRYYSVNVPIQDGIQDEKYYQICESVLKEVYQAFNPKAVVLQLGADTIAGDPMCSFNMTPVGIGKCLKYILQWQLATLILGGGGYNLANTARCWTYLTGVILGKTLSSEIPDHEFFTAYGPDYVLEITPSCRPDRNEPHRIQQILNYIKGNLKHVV
pKi: −log10 of the molar value.
measured_parameter: pKi

>>> value_measured("CN1CCC(CNC(=O)c2cccc(C(=O)NO)c2)(c2nc(-c3ccccc3)cs2)CC1")
5.88
>>> value_measured("CN1CCC(CNC(=O)c2cccc(-c3noc(C(F)(F)F)n3)c2)(c2nc(-c3ccccc3)cs2)CC1")
5.12
